assay: Dissociation constant, pKa by potentiometric titration method; format: physicochemical
Reported Metric: pKa

# Compound String, pKa
records = [
    ("Fc1ccc2c(c1)N(CCCN1CCCCC1)c1cc(F)ccc1CC2", 7.6),
    ("CCN(CC)CCCN1c2cc(F)ccc2CCc2ccc(F)cc21", 7.7),
    ("Fc1ccc2c(c1)N(CCCN1CCCC1)c1cc(F)ccc1CC2", 7.9),
    ("Fc1ccc2c(c1)N(CCCN1CCOCC1)c1cc(F)ccc1CC2", 7.6),
    ("CN(C)CCCN1c2cc(F)ccc2CCc2ccc(F)cc21", 7.7),
]
